Entries annotated with measured growth inhibition
- Experimental Protocol: NCI Yeast Anticancer Drug Screen. Data for the mlh1 rad18 strain (AID 175)
- Stated Conditions: S. cerevisiae mlh1 rad18 strain growth inhibition; at 50.0 µM; stronger effect = higher value
The panel holds about 79,000 compounds, 15% with a hit somewhere; the sample as a whole holds those more often.

Compound	growth inhibition, %
COC(=O)C1C(O)C(C)C(=O)C(C)/C=C\C=C(C)C(=O)Nc2c(C)c(OC(C)=O)c3c(c2O)C(=O)C(C)=C2OCOC(=C23)C(C)=CC(C)(O)C(O)C(C)C1O (centres undefined)	81
Nc1nc(-c2ccc(Cl)cc2)c(N=Nc2ccc(Br)cc2)s1	98.5
CCOC(=O)c1ccccc1NC(OCC)C(=O)c1ccccc1 (centres undefined) (tested in a mixture with another compound)	90.7
CC12C(=O)OC(=O)C1C1c3ccccc3C2c2ccccc21 (centres undefined)	88
COc1ccc(CSC(=S)Nc2cc(C)c(C)cc2[N+](=O)[O-])cc1	98
N#CCCN(CCC#N)Cc1c(O)c(O)c(CN(CCC#N)CCC#N)c2ccccc12	59
Oc1ccc2cc(Br)ccc2c1O	98.2
CCCCCC(C)(C)N=C=S	-5.6
O=S(=O)(Nc1cccc(C2=NCCN2)c1)c1ccc2c(S(=O)(=O)Nc3cccc(C4=NCCN4)c3)cccc2c1	78.2
